Target: Aurora kinase A (Homo sapiens, UniProt O14965)
Sequence (O14965 whole entry): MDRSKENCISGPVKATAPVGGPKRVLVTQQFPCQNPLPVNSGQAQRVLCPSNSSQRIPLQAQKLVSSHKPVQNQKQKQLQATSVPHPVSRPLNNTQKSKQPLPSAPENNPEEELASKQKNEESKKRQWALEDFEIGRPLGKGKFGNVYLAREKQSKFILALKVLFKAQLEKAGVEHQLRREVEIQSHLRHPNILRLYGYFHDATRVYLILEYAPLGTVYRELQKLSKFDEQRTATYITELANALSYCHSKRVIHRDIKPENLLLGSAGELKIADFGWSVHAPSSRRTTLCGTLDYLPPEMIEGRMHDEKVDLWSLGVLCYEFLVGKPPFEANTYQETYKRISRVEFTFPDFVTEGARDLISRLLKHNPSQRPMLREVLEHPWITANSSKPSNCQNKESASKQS
pKi: −log10 of the molar value.
pKi reference
measurementKind: pKi

recordsmiles=Cc1cnc(Nc2cccc3c2OC(F)(F)O3)nc1-c1c[nH]c(C(=O)N[C@H](CO)c2cccc(Cl)c2)c1 observedmeasurement="< 6.10"
recordsmiles=COc1cccc(Nc2ncc(C)c(-c3c[nH]c(C(=O)N[C@H](CO)c4cccc(Cl)c4)c3)n2)c1OC observedmeasurement="< 6.70"
recordsmiles=Cc1cnc(Nc2ccccc2C(F)(F)F)nc1-c1c[nH]c(C(=O)N[C@H](CO)c2ccccc2)c1 observedmeasurement="< 6.10"
